Measured shrunken log2 fold change, listed per entry.
Tested on: Escherichia coli TOP10
Assay: shrunken log2 fold change of peptide-encoding DNA abundance (4.5 h post-induction vs induction); higher = less antimicrobial activity (less host growth inhibition)
Conditions: time post-induction: 4.5 h; library: site-saturation at positions 5, 18, 19, 20
Keep it simple and answer with nothing but the number.

Reference set (10 entries):
RRIRWRPPRLPRPRPRPSTNPRP -0.127
RRIRRRPPRLPRPRPRPFPTPRP 0.164
RRIRTRPPRLPRPRPRPHYNPRP -0.75
RRIRGRPPRLPRPRPRPTLDPRP 0.93
RRIRWRPPRLPRPRPRPRWWPRP 0.0648
RRIRCRPPRLPRPRPRPGFPPRP 0.134
RRIRSRPPRLPRPRPRPYMPPRP -1.04
RRIRSRPPRLPRPRPRPWFMPRP -0.86
RRIRMRPPRLPRPRPRPSMRPRP 0.429
RRIRCRPPRLPRPRPRPCNDPRP -0.173

Need shrunken log2 fold change of RRIRDRPPRLPRPRPRPEKWPRP , thanks.
-0.00325

Would you kindly repeat that for RRIRHRPPRLPRPRPRPVPWPRP ?
0.0803

* * *

Test system: Escherichia coli TOP10
Assay: shrunken log2 fold change of peptide-encoding DNA abundance (4.5 h post-induction vs induction); higher = less antimicrobial activity (less host growth inhibition)
Conditions: time post-induction: 4.5 h; library: site-saturation at positions 5, 18, 19, 20
PROPERTY_LABEL: shrunken log2 fold change

Reference set (7 entries):
RRIRGRPPRLPRPRPRPSLFPRP 0.442
RRIRCRPPRLPRPRPRPGWIPRP 0.198
RRIRLRPPRLPRPRPRPPRVPRP 0.536
RRIRERPPRLPRPRPRPVNAPRP -0.353
RRIRQRPPRLPRPRPRPIFKPRP -0.208
RRIRWRPPRLPRPRPRPTFKPRP 0.132
RRIRWRPPRLPRPRPRPKMQPRP 0.329

Need shrunken log2 fold change of RRIRQRPPRLPRPRPRPPWHPRP , thanks.
0.187

* * *

Measured shrunken log2 fold change, listed per entry.
System: Escherichia coli TOP10
Experiment: shrunken log2 fold change of peptide-encoding DNA abundance (4.5 h post-induction vs induction); higher = less antimicrobial activity (less host growth inhibition)
Details: time post-induction: 4.5 h; library: site-saturation at positions 5, 18, 19, 20
Keep it simple and answer with nothing but the number.

Reference set (5 entries):
RRIRQRPPRLPRPRPRPWTMPRP 0.0143
RRIRNRPPRLPRPRPRPQIEPRP -0.251
RRIRRRPPRLPRPRPRPYLIPRP -0.082
RRIRERPPRLPRPRPRPNQTPRP -0.13
RRIRFRPPRLPRPRPRPGKCPRP -0.421

Need shrunken log2 fold change of RRIRIRPPRLPRPRPRPSLGPRP , thanks.
-0.245

Would you kindly repeat that for RRIRPRPPRLPRPRPRPKYTPRP ?
-0.414

Would you kindly repeat that for RRIRARPPRLPRPRPRPYVPPRP ?
-0.114

* * *

Tested on: Escherichia coli TOP10;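 note: peptides expressed intracellularly from a pBAD plasmid library in pooled LB shake-flask culture, induced with 0.3% L-arabinose, DNA abundance read by NGS, three biological replicates, DESeq2 with apeglm shrinkage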
Test: shrunken log2 fold change of peptide-encoding DNA abundance (4.5 h post-induction vs induction); higher = less antimicrobial activity (less host growth inhibition)
Conditions: time post-induction: 4.5 h; library: site-saturation at positions 5, 18, 19, 20
PROPERTY_LABEL: shrunken log2 fold change
Keep it simple and answer with nothing but the number.

Reference set (5 entries):
RRIRGRPPRLPRPRPRPLYVPRP 0.0628
RRIRYRPPRLPRPRPRPPFAPRP 0.0915
RRIRARPPRLPRPRPRPHEVPRP 0.101
RRIRSRPPRLPRPRPRPPPSPRP 0.785
RRIRHRPPRLPRPRPRPISYPRP 0.121

Need shrunken log2 fold change of RRIRMRPPRLPRPRPRPPNIPRP , thanks.
-0.113

Would you kindly repeat that for RRIRFRPPRLPRPRPRPGAHPRP ?
-0.126

Would you kindly repeat that for RRIRFRPPRLPRPRPRPHRHPRP ?
-0.333

Data credit: the supplement of paper PMC9112550
